test system: CAL-120, human breast adenocarcinoma cells; test: Proliferation assay CAL-120 (crystal violet, 4 days); type: cell-based; conditions: Homo sapiens, CAL-120, 96 h, CAL-120 cells, median, read-out: Prolif-CAL-120, IC50-[mol/l] (median)
Recorded IC50 by entry
measured attribute: IC50

[[record]]
molecule = "FC(F)(F)c1ccc2[nH]c(CNc3nc(N4CC5CCC(C4)N5)nc4c(Br)cnn34)nc2c1 [Example 354]"
observed = "0.0028 µM"

[[record]]
molecule = "CC1(C)CN(c2nc(NCc3nnc(-c4ccccc4)[nH]3)n3ncc(C4CC4)c3n2)CCO1 [Example 94]"
observed = "0.177 µM"

[[record]]
molecule = "Brc1cnn2c(NCc3nnc(-c4ccccn4)[nH]3)nc(N3CCOCC3)nc12 [Example 54]"
observed = "0.0538 µM"

[[record]]
molecule = "OC1CCCN(c2nc(NCc3nc4ccccc4[nH]3)n3ncc(Br)c3n2)C1 (racemic) [Example 16]"
observed = "0.0382 µM"

[[record]]
molecule = "C[C@@H]1CN(c2nc(NCc3nc4ccccc4[nH]3)n3ncc(Br)c3n2)CCN1C [Example 135]"
observed = "0.0417 µM"

[[record]]
molecule = "CC1(C)CN(c2nc(NCc3nc4ccccc4[nH]3)n3ncc(Br)c3n2)CCN1 [Example 216]"
observed = "0.00855 µM"

[[record]]
molecule = "FC(F)(F)Cc1cnn2c(NCc3nc4ccccc4[nH]3)nc(N3CCOCC3)nc12.O=CO [Example 265]"
observed = "0.0354 µM"

[[record]]
molecule = "O=C1CN(c2nc(NCc3nc4ccccc4[nH]3)n3ncc(Br)c3n2)CCN1 [Example 167]"
observed = "0.0704 µM"

